Assign microsomal CLint at 1 μM to each entry below.
# PROCEDURE_SUMMARY: Microsomal metabolic stability assay
# Format: in vitro ADME
# REPORTED_CONDITIONS: pH 7.4; rat liver microsomes, 0.5 mg/mL protein, 1 μM compound; read-out: Rat LM Clint
One number for each entry, in µL/min/mg.

For the 4 compounds below, give their microsomal CLint at 1 μM values.
1. CCn1ccc2c(c(Nc3cc(Nc4ccc(F)cn4)ncc3C(=O)NC)cn2C)c1=O
2. [2H]C([2H])([2H])NC(=O)c1cnc(Nc2ccn(C)n2)cc1Nc1cc(F)c2cnn(CC)c2c1OC
3. [2H]C([2H])([2H])NC(=O)c1cnc2nc1Nc1cc(cc(-c3ncn(C)n3)c1OC)COCc1cc(ccc1F)N2
4. [2H]C([2H])([2H])NC(=O)c1cnc(Nc2ccn(C)n2)cc1Nc1cn(C)c2c(C)cn(CC)c(=O)c12

137
66.3
19.6
53.8

----------
# PROCEDURE_SUMMARY: Microsomal metabolic stability assay
# Format: in vitro ADME
# REPORTED_CONDITIONS: pH 7.4; dog liver microsomes, 0.5 mg/mL protein, 1 μM compound; read-out: Dog LM T½
PROPERTY_LABEL: half-life at 1 μM (min)
Give bare numbers, in min.

Consider the reported half-life at 1 μM for these compounds:
COC(=O)c1cnc(NC(=O)C2CC2)cc1Nc1ncn2ccn(CC(F)(F)F)c(=O)c12 :: 55.4
[2H]C([2H])([2H])NC(=O)c1cnc(Nc2ccncn2)cc1Nc1ccc2cnn(C([2H])([2H])[2H])c2c1OC :: 26.7

Could you now consider this next compound?
Answer with the recorded half-life at 1 μM of `[2H]C([2H])([2H])NC(=O)c1nnc2cc1Nc1cc(cc(-c3ncn(C)n3)c1OC)COCc1cccc(n1)N2` only.
121

----------
Assign half-life at 1 μM to each entry below.
# PROCEDURE_SUMMARY: Microsomal metabolic stability assay
# Format: in vitro ADME
# REPORTED_CONDITIONS: pH 7.4; dog liver microsomes, 0.5 mg/mL protein, 1 μM compound; read-out: Dog LM T½

Consider the reported half-life at 1 μM for these molecules:
[2H]C([2H])([2H])NC(=O)c1nnc2cc1Nc1cc(cc(-c3ncn(C4CC4)n3)c1OC)COCc1nc(ccc1F)N2 [Example 82] :: 1.3 h
[2H]C([2H])([2H])NC(=O)c1cnc(Nc2cccc(C#N)n2)cc1Nc1cn(C)c2c(Cl)cn(CC)c(=O)c12 [Example 163] :: 1.91 h
[2H]C([2H])([2H])NC(=O)c1cnc2nc1Nc1cc(cc(-c3ncn(C)n3)c1OC)COCc1cc(ccc1F)N2 [Example 76] :: 1.88 h
CCn1ccc2c(c(Nc3cc(NC(=O)C4CC4)nnc3C(=O)NC)cn2C)c1=O [Example 23] :: 1.08 h
CCn1ccc2c(c(Nc3cc(Nc4ccc(F)cn4)ncc3C(=O)NC)cn2C)c1=O [Example 10] :: 2.13 h

For the 8 molecules below, give their half-life at 1 μM values.
1. [2H]C([2H])([2H])NC(=O)c1cnc(Nc2ccc(F)cn2)cc1Nc1ncc2cnn(CC)c2c1OC [Example 263]
2. [2H]C([2H])([2H])NC(=O)c1cnc(NC(=O)C2CC2)cc1Nc1cn(C)c2c(F)cn(CC(F)(F)F)c(=O)c12 [Example 123]
3. [2H]C([2H])([2H])NC(=O)c1cnc(Nc2cc(C)nc(C)n2)cc1Nc1cc(F)c2cnn(CC)c2c1OC [Example 152]
4. [2H]C([2H])([2H])NC(=O)c1cnc(Nc2ccc(F)cc2)nc1Nc1cccc(-c2ncn(C)n2)c1OC [Example 20]
5. [2H]C([2H])([2H])NC(=O)c1nnc2cc1Nc1cc(cc(-n3cnc(C)n3)c1OC)COCc1nc(ccc1F)N2 [Example 75]
6. [2H]C([2H])([2H])NC(=O)c1cnc(Nc2ccn(C)n2)cc1Nc1cn(C)c2c(C)cn(CC)c(=O)c12 [Example 198]
7. [2H]C([2H])([2H])NC(=O)c1nnc2cc1Nc1cc(cc(-c3ncn(C)n3)c1OC)CN(C)Cc1nc(ccc1F)N2 [Example 72]
8. [2H]C([2H])([2H])NC(=O)c1cnc2cc1Nc1cc(cc(-c3ncn(C)n3)c1OC)COCc1cc(F)cc(n1)N2 [Example 77]

1: 0.238 h; 2: 1.41 h; 3: 0.0483 h; 4: 0.572 h; 5: 0.613 h; 6: > 2 h; 7: 1.43 h; 8: 1.5 h

Answer with the recorded half-life at 1 μM of [2H]C([2H])([2H])NC(=O)c1cnc(Nc2ccc(C#N)cc2)nc1Nc1cccc(-c2ncn(C)n2)c1OC [Example 28] only.
4.84 h
